Hello, the source for this data is patent US8569336B2, in case you need it.

Target: purified catalytic domain of recombinant human TACE (rhTACEc) (Homo sapiens, UniProt P78536, N452Q/S266A)
Construct: 6xHis (C); made in house; host or cells: baculovirus/Hi5 insect cells
Sequence (P78536 215-477 S266A/N452Q): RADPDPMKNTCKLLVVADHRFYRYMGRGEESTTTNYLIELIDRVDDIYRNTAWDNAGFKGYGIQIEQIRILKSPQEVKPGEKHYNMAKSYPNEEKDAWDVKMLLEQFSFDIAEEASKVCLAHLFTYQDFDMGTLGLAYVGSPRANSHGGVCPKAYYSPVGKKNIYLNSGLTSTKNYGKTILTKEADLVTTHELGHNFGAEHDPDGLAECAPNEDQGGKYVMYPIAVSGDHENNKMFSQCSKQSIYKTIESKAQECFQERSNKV
Assay: TACE kinetic assay: cleavage of internally quenched peptide substrate TNF-FRET 2 (Ki)
Type: biochemical
Settings: TNF-FRET 2 substrate, read-out: Ki
measured.quantity: pKi
Field pKi (float): negative decimal logarithm of the concentration in molar.

Request: Report pKi for COc1ccc2c(c1)C(=O)N(C[C@@]1(c3cc4nc(NC5CCN(C)CC5)ccc4o3)NC(=O)NC1=O)C2 please.
Result: 9.22

Request: Report pKi for COc1ccc2c(c1)C(=O)N(C[C@@]1(c3cc4cc(CNc5ccccn5)ccc4o3)NC(=O)NC1=O)C2 please.
Result: 9.46

Request: Report pKi for COc1ccc2c(c1)C(=O)N(C[C@@]1(c3cc4cc(C(=NO)N5CCCN(C)CC5)ccc4o3)NC(=O)NC1=O)C2 please.
Result: 9.17

Request: Report pKi for COc1ccc2c(c1F)C(=O)N(C[C@@]1(c3cc4cc([C@@]5(C)NC(=O)NC5=O)c(F)cc4o3)NC(=O)NC1=O)C2 (single isomer, unassigned) please.
Result: 9.20

Request: Report pKi for COc1ccc2c(c1F)C(=O)N(C[C@@]1(c3cc4ccc5c(c4o3)CNC5=O)NC(=O)NC1=O)C2 please.
Result: 8.92

Request: Report pKi for COc1ccc2c(c1)C(=O)N(C[C@@]1(c3cc4cc(C(N)=O)c(C)cc4o3)NC(=O)NC1=O)C2 please.
Result: 9.29

----------
Test: Area under the curve determinations of plasma levels in rats (rrAUC), oral 10 mg/kg
Format: in vivo
Settings: rat, plasma, blood collected 0.5-6 h post-dosing, read-out: RR AUC (rapid rat AUC, rrAUC)
For each of the compounds below, state its log10 of AUC.
In plain terms, each number is the log10 of measured AUC in µM·h.

Request: Report log10 of AUC for CNS(=O)(=O)c1cc2oc([C@]3(CN4Cc5ccc(OC)cc5C4=O)NC(=O)NC3=O)cc2cc1C [Compound 2480] please.
Result: -0.67

Request: Report log10 of AUC for COC(=O)Nc1ccc2oc([C@]3(CN4Cc5ccc(OC)cc5C4=O)NC(=O)NC3=O)cc2n1 [Compound 2474] please.
Result: 1.19

Request: Report log10 of AUC for COc1ccc2c(c1)C(=O)N(C[C@@]1(c3cc4cc(C5(C(N)=O)CC5)ccc4o3)NC(=O)NC1=O)C2 [Compound 2421] please.
Result: -1.43

Request: Report log10 of AUC for COc1ccc2c(c1)C(=O)N(C[C@@]1(c3cc4cnc(Cl)cc4o3)NC(=O)NC1=O)C2 [Compound 2285] please.
Result: 1.35

Request: Report log10 of AUC for COc1ccc2c(c1)C(=O)N(C[C@@]1(c3cc4c(C(N)=O)nccc4o3)NC(=O)NC1=O)C2 [Compound 2401] please.
Result: 0.16

Request: Report log10 of AUC for COc1ccc2c(c1)C(=O)N(C[C@@]1(c3cc4c(N5CCOCC5)nccc4o3)NC(=O)NC1=O)C2 [Compound 2281] please.
Result: -0.13

Request: Report log10 of AUC for COc1ccc2c(c1)C(=O)N(C[C@@]1(c3cc4nc(-c5ccc(C#N)nc5)ccc4o3)NC(=O)NC1=O)C2 [Compound 2472] please.
Result: -0.27

Request: Report log10 of AUC for COc1ccc2c(c1)C(=O)N(C[C@@]1(c3cc4c(C)nccc4o3)NC(=O)NC1=O)C2 [Compound 2284] please.
Result: 0.45

Request: Report log10 of AUC for COc1ccc2c(c1)C(=O)N(C[C@@]1(c3cc4cc(Cl)ncc4o3)NC(=O)NC1=O)C2 [Compound 2300] please.
Result: 1.36

Request: Report log10 of AUC for COc1ccc2c(c1F)C(=O)N(C[C@@]1(c3cc4cc5c(c(F)c4o3)C(=O)N(C)C5)NC(=O)NC1=O)C2 [Compound 2502] please.
Result: 0.49

Request: Report log10 of AUC for COc1ccc2c(c1)C(=O)N(C[C@@]1(c3cc4cc(NC(C)=O)cnc4o3)NC(=O)NC1=O)C2 [Compound 2295] please.
Result: -1.36

Request: Report log10 of AUC for COc1ccc2c(c1F)C(=O)N(C[C@@]1(c3cc4cc5c(cc4o3)C(=O)NCC5)NC(=O)NC1=O)C2 [Compound 2491] please.
Result: -0.01

Request: Report log10 of AUC for COc1ccc2c(c1)C(=O)N(C[C@@]1(c3cc4ccc(C(=O)N5CCNCC5)cc4o3)NC(=O)NC1=O)C2 [Compound 2424] please.
Result: -1.89

Request: Report log10 of AUC for CCc1cc2oc([C@]3(CN4Cc5ccc(OC)cc5C4=O)NC(=O)NC3=O)cc2cn1 [Compound 2290] please.
Result: 1.31

Request: Report log10 of AUC for COc1ccc2c(c1)C(=O)N(C[C@@]1(c3cc4c(N5CCCC5=O)nccc4o3)NC(=O)NC1=O)C2 [Compound 2293] please.
Result: -0.66

----------
For each of the compounds below, state its RR AUC (rapid rat AUC, rrAUC).
Assay: Area under the curve determinations of plasma levels in rats (rrAUC), oral 10 mg/kg
Type: in vivo
Details: blood collected 0.5-6 h post-dosing
Quick note: give the figure in µM·h, leave out the unit.

Request: Report RR AUC (rapid rat AUC, rrAUC) for COc1ccc2c(c1)C(=O)N(C[C@@]1(c3cc4nc(N)ccc4o3)NC(=O)NC1=O)C2 please.
Result: 0.424

Request: Report RR AUC (rapid rat AUC, rrAUC) for COc1ccc2c(c1)C(=O)N(C[C@@]1(c3cc4c(C#N)nccc4o3)NC(=O)NC1=O)C2 please.
Result: 0.485

Request: Report RR AUC (rapid rat AUC, rrAUC) for COc1ccc2c(c1)C(=O)N(C[C@@]1(c3cc4cnc(-c5cccc(C#N)c5)cc4o3)NC(=O)NC1=O)C2 please.
Result: 10.648

Request: Report RR AUC (rapid rat AUC, rrAUC) for COc1ccc2c(c1)C(=O)N(C[C@@]1(c3cc4nc(NS(=O)(=O)C5CC5)ccc4o3)NC(=O)NC1=O)C2 please.
Result: 0.015

Request: Report RR AUC (rapid rat AUC, rrAUC) for COc1ccc2c(c1)C(=O)N(C[C@@]1(c3cc4nc(C(N)=O)ccc4o3)NC(=O)NC1=O)C2 please.
Result: 0.113

Request: Report RR AUC (rapid rat AUC, rrAUC) for CCOC(=O)N1CCc2oc([C@]3(CN4Cc5ccc(OC)cc5C4=O)NC(=O)NC3=O)cc2C1 please.
Result: 4.026

----------
Target: purified catalytic domain of recombinant human TACE (rhTACEc) (Homo sapiens, UniProt P78536, N452Q/S266A)
Construct: 6xHis (C); made in house; host or cells: baculovirus/Hi5 insect cells
Experiment: TACE kinetic assay: cleavage of internally quenched peptide substrate TNF-FRET 2 (Ki)
Type: biochemical
Details: Ki, TNF-FRET 2 substrate
measured.quantity: pKi
Field pKi (float): negative decimal logarithm of the concentration in molar.

Request: Report pKi for COc1ccc2c(c1)C(=O)N(C[C@@]1(c3cc4nc(N)ccc4o3)NC(=O)NC1=O)C2 [Compound 1936] please.
Result: 9.29

Request: Report pKi for COc1ccc2c(c1)C(=O)N(C[C@@]1(c3cc4cc(-c5cc(N)n(C)n5)ccc4o3)NC(=O)NC1=O)C2 [Compound 2247] please.
Result: 9.48

Request: Report pKi for COc1ccc2c(c1)C(=O)N(C[C@@]1(c3cc4nc(N5CCN(C)CC5)ccc4o3)NC(=O)NC1=O)C2 [Compound 2108] please.
Result: 9.21

Request: Report pKi for CCCN1CCC(c2nc3cc([C@]4(CN5Cc6ccc(OC)c(F)c6C5=O)NC(=O)NC4=O)oc3cc2F)CC1 [Compound 1324] please.
Result: 9.24

Request: Report pKi for COc1ccc2c(c1)C(=O)N(C[C@@]1(c3cc4ccc(C(=O)N5CCNC(=O)C5)cc4o3)NC(=O)NC1=O)C2 [Compound 2422] please.
Result: 9.17

Request: Report pKi for COc1ccc2c(c1)C(=O)N(C[C@@]1(c3cc4c(o3)CCN(CC(N)=O)C4)NC(=O)NC1=O)C2 [Compound 2483] please.
Result: 9.15

Request: Report pKi for COc1ccc2c(c1)C(=O)N(C[C@@]1(c3cc4nc(-c5nnn[nH]5)ccc4o3)NC(=O)NC1=O)C2 [Compound 2167] please.
Result: 9.45

Request: Report pKi for COc1ccc2c(c1)C(=O)N(C[C@@]1(c3cc4nc(N(c5cn[nH]c5)C5CCN(C)CC5)ccc4o3)NC(=O)NC1=O)C2 [Compound 1703] please.
Result: 9.00

Request: Report pKi for COc1ccc2c(c1)C(=O)N(C[C@@]1(c3cc4ncc(C5=NCCN5)cc4o3)NC(=O)NC1=O)C2 [Compound 1942] please.
Result: 8.68

Request: Report pKi for COc1ccc2c(c1)C(=O)N(C[C@@]1(c3cc4nc(-n5nc(N)cc5C)ccc4o3)NC(=O)NC1=O)C2 [Compound 2118] please.
Result: 9.22

Request: Report pKi for COc1ccc2c(c1F)C(=O)N(C[C@@]1(c3cc4nc(N5CC(=O)NC5=O)c(F)cc4o3)NC(=O)NC1=O)C2 [Compound 1330] please.
Result: 9.41

Request: Report pKi for COc1ccc2c(c1)C(=O)N(C[C@@]1(c3cc4nc(Nc5cccnc5)ccc4o3)NC(=O)NC1=O)C2 [Compound 2130] please.
Result: 9.20

Request: Report pKi for COc1ccc2c(c1)C(=O)N(C[C@@]1(c3cc4cnc(C(F)(F)F)cc4o3)NC(=O)NC1=O)C2 [Compound 2269] please.
Result: 9.30

Request: Report pKi for COc1ccc2c(c1)C(=O)N(C[C@@]1(c3cc4cc(C(=O)N5CCN(C)CC5)ccc4o3)NC(=O)NC1=O)C2 [Compound 2426] please.
Result: 8.90
